Please go through the items and note down their MIC.
Test system: Pasteurella multocida PM 6391 (ATCC 43137, reference strain)
test_details: MIC, broth-microdilution (CLSI VET01-A4)
Assay type: cell-based
assay_conditions: strain PM 6391
Write the value in µg/mL as a bare number.

The recorded MIC for `COCCNCc1ccc(C#Cc2ccc(C(=O)N[C@H](C(=O)NO)[C@@H](C)O)cc2)cc1` is 0.063

The recorded MIC for CC(C)(N)C(NC(=O)c1ccc(C#Cc2ccc(CNCc3ccncc3)cc2)cc1)C(=O)NO (stereo not drawn) is 0.032

The recorded MIC for `CCCNCc1ccc(C#Cc2ccc(C(=O)N[C@H](C(=O)NO)[C@@H](C)O)cc2)cc1` is 8

The recorded MIC for `C[C@@H](O)[C@H](NC(=O)c1ccc(C#Cc2ccc(CNCC(F)(F)F)cc2)cc1)C(=O)NO` is 0.032

The recorded MIC for `COCCNCc1ccc(C#Cc2ccc(C(=O)N[C@H](C(=O)NO)[C@@H](C)O)cc2)s1` is 0.25

The recorded MIC for CC(C)(N)C(NC(=O)c1ccc(C#Cc2ccc(CNC3CC3)cc2)cc1)C(=O)NO (stereo not drawn) is 0.063
